# targetEntity: Perilipin-5 (Homo sapiens) + 1-acylglycerol-3-phosphate O-acyltransferase ABHD5 (Homo sapiens) (UniProt Q00G26+Q8WTS1)
# Sequence (Q00G26 whole entry, looked up): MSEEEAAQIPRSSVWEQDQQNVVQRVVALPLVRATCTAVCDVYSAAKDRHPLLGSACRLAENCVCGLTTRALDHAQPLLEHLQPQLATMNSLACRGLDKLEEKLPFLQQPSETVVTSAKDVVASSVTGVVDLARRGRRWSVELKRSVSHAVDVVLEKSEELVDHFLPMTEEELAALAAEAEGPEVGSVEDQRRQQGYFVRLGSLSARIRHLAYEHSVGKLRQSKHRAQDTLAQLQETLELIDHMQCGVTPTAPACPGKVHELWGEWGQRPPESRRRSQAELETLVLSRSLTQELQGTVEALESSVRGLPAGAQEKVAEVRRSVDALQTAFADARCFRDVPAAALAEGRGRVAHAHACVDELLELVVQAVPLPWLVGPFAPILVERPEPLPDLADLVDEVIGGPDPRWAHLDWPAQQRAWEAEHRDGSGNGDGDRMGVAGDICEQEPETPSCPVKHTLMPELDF
# Sequence (Q8WTS1 whole entry, looked up): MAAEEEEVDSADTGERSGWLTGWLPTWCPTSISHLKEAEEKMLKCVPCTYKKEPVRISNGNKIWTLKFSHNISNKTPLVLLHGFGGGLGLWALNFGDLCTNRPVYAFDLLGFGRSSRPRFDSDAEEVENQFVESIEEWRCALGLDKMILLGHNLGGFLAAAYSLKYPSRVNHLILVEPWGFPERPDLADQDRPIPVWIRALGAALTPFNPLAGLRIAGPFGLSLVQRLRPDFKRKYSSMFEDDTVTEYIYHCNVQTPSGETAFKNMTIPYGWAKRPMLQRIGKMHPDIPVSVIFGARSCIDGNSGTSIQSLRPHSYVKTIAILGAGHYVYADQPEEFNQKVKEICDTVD
# testMethodNotes: PubChem AID 652130
# condition: ABHD5/PLIN5 interaction, luminescence, HEK293T-produced proteins
Active and inactive are the calls of the source. The rule behind the calls is not given here.
Possible outcomes: 1.0 (active), 0.0 (inactive)

>>> assignedclass("CCCC(=O)Nc1ccc2c(c1)C(=O)N(C)c1ccccc1O2")
0.0
>>> assignedclass("O=C(CCc1c[nH]c2ccccc12)N1CCN(S(=O)(=O)c2ccc3c(c2)OCCO3)CC1")
0.0
>>> assignedclass("CCCS(=O)(=O)c1ccc(Cl)c(C(=O)Nc2ccc(C(=O)OCC)cc2)c1")
1.0
>>> assignedclass("CCc1ccc2c(CC(=O)N3CCN(S(=O)(=O)c4ccc5c(c4)OCCO5)CC3)coc2c1")
1.0
>>> assignedclass("CCS(=O)(=O)c1ncc(Cl)c(C(=O)Nc2ccc(C)cc2)n1")
1.0
>>> assignedclass("O=C(CCn1cnc2ccccc21)N1CCN(S(=O)(=O)c2ccc3c(c2)OCCO3)CC1")
0.0
>>> assignedclass("O=C(Cc1cccc(F)c1)N1CCN(S(=O)(=O)c2ccc3c(c2)OCCO3)CC1")
0.0
>>> assignedclass("CN1C(=O)c2ccccc2Oc2ccc(NC(=O)c3cccs3)cc21")
0.0
>>> assignedclass("CCCCCNC(=O)Nc1ccc2c(c1)Sc1ccccc1C(=O)N2C")
0.0
>>> assignedclass("NS(=O)(=O)c1ccc(NC(=O)c2nc(S(=O)(=O)Cc3ccccc3)ncc2Cl)cc1")
1.0
>>> assignedclass("COc1ccc(CCNC(=O)c2nc(S(=O)(=O)Cc3ccc(F)cc3)ncc2Cl)cc1OC")
1.0
>>> assignedclass("CC(NC(=O)CN1CCN(S(=O)(=O)c2ccc3c(c2)OCCCO3)CC1)c1cc2ccccc2o1 (configuration not stated)")
0.0
>>> assignedclass("CN(C)CCCN(C(=O)Cc1ccc(F)cc1)c1nc2ccc(Cl)cc2s1")
0.0
>>> assignedclass("CN(C)CCCN(C(=O)C1CCCCC1)c1nc2cc(Br)ccc2s1")
0.0
>>> assignedclass("CCCC(=O)N(CCCN1CCOCC1)c1nc2ccc(Cl)cc2s1")
0.0
>>> assignedclass("CN(C)CCCN(C(=O)C1CCCCC1)c1nc2cc(Cl)ccc2s1")
0.0
>>> assignedclass("CN(C(=O)c1nc(S(C)(=O)=O)ncc1Cl)c1ccccc1")
1.0

Sourced from PubChem BioAssay AID652130
